Entry source: paper PMC6147116

TARGET_OF_ASSAY: steroid sulfatase (STS) (Homo sapiens, UniProt P08842)
Construct: from tissue; host or cells: human term placenta, microsomal fraction
Sequence (P08842 22-583): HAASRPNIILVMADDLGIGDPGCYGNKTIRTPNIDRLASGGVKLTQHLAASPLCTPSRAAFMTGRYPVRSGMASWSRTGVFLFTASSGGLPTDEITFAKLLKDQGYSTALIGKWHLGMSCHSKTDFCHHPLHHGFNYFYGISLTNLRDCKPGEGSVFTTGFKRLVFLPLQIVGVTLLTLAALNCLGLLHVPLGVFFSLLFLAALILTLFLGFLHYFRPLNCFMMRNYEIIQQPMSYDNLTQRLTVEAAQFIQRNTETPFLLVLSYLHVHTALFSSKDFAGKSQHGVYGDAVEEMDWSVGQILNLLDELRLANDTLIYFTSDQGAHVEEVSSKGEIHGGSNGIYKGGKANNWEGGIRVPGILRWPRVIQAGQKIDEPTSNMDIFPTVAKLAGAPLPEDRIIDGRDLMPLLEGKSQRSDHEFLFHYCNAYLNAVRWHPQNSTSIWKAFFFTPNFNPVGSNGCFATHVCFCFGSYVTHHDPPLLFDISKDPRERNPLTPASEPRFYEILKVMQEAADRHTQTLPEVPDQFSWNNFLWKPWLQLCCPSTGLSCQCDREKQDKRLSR
MEASUREMENT_NOTES: STS inhibition, in vitro radiosubstrate incubation (release of E1 from E1S), human placental microsomes; Dixon kinetic analysis
Assay type: biochemical
ASSAY_CONTEXT: E1S substrate 1.0 µM; read-out: STS IC50 ± SD
Each entry below carries its reported IC50.
Report only the number, with the unit µM understood.

Solved entries:
C[C@]12CCC[C@H]1[C@@H]1CCc3cc(O)c(Br)cc3[C@H]1CC2 [14b]
4.1
C[C@@]12CC[C@@H]3c4ccc(O)c(I)c4CC[C@H]3[C@@H]1CCC2=O [11a]
6
C[C@]12CCC[C@H]1[C@@H]1CCc3c(cc(Cl)c(O)c3Cl)[C@H]1CC2 [16c, 2,4-bis-chloro-17-deoxy-13α-estrone]
1.3
C[C@@]12CC[C@@H]3c4ccc(O)c(Br)c4CC[C@H]3[C@@H]1CCC2=O [11b]
8.5
C[C@]12CCC[C@H]1[C@@H]1CCc3c(ccc(O)c3Cl)[C@H]1CC2 [15c]
6.3

Task: What value of measured IC50 is listed for C[C@]12CC[C@@H]3c4ccc(O)c(Br)c4CC[C@H]3[C@@H]1CCC2=O [7b, 4-bromoestrone] ?
Result: 0.89

Task: Look up IC50 for this compound: C[C@]12CCC[C@H]1[C@@H]1CCc3cc(O)c(Cl)cc3[C@H]1CC2 [14c]
Result: 7

Task: Would you kindly share the measured IC50 for C[C@]12CCC[C@H]1[C@@H]1CCc3cc(O)c(I)cc3[C@H]1CC2 [14a] ?
Result: 3.9

----------
TARGET_OF_ASSAY: 17β-hydroxysteroid dehydrogenase type 1 (17β-HSD1) (Homo sapiens, UniProt P14061)
Sequence (P14061 whole entry): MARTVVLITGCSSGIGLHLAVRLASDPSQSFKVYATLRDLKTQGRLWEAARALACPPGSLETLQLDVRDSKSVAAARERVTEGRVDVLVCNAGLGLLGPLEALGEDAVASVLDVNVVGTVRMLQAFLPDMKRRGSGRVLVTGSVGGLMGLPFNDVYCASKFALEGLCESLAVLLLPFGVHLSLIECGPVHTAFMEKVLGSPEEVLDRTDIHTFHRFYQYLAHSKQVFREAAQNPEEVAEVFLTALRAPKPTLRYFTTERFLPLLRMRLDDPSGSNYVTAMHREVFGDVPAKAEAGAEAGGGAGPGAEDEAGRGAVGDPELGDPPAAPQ
MEASUREMENT_NOTES: 17β-HSD1 inhibition, in vitro radiosubstrate incubation (E1 to E2), human placental cytosol; Dixon kinetic analysis
Assay type: biochemical
ASSAY_CONTEXT: E1 substrate 1.0 µM, NADPH excess; read-out: 17β-HSD1 IC50 ± SD
pIC50: −log10 of the molar value.
Quick rule for you: pIC50 at 6 or higher means Met, lower means Not met.

Look over these answered cases.
C[C@]12CC[C@@H]3c4cc(Br)c(O)cc4CC[C@H]3[C@@H]1CCC2=O
Met
C[C@]12CC[C@@H]3c4ccc(O)c(Br)c4CC[C@H]3[C@@H]1CCC2=O
Met
C[C@]12CCC[C@H]1[C@@H]1CCc3cc(O)c(Cl)cc3[C@H]1CC2 [14c]
Not met
C[C@@]12CC[C@@H]3c4ccc(O)c(I)c4CC[C@H]3[C@@H]1CCC2=O [11a]
Met

Task: Would you say C[C@]12CC[C@@H]3c4cc(Cl)c(O)cc4CC[C@H]3[C@@H]1CCC2=O shows pIC50 at minimum 6?
Result: Met

Task: State whether the measured pIC50 reaches 6, counting equality as reaching it, for C[C@@]12CC[C@@H]3c4cc(Cl)c(O)cc4CC[C@H]3[C@@H]1CCC2=O [10c]
Result: Met

Task: Entry C[C@]12CC[C@@H]3c4cc(I)c(O)cc4CC[C@H]3[C@@H]1CCC2=O : is its pIC50 no less than 6?
Result: Met

Task: Determine whether this compound has pIC50 no lower than 6: C[C@]12CCC[C@H]1[C@@H]1CCc3cc(O)c(I)cc3[C@H]1CC2 [14a]
Result: Not met
